- tested on: Heat shock protein HSP 90-alpha (Homo sapiens, UniProt P07900)
- protocol: Inhibition of recombinant human Hsp90alpha ATP-binding pocket of N-terminal domain after 4 hrs by fluorescence polarization assay

>  <compound structure string>
Cc1cccc(C)c1Oc1nc(N)nc(Cl)n1

>  <u>
µM

>  <IC50>
5

$$$$

---

- tested on: Heat shock protein HSP 90-alpha (Homo sapiens, UniProt P07900)
- protocol: Inhibition of recombinant human Hsp90alpha ATP-binding pocket of N-terminal domain after 4 hrs by fluorescence polarization assay
pKi: −log10 of the molar value.
measurement name: pKi

>  <compound structure string>
Cc1cccc(C)c1Oc1nc(N)nc(Cl)n1

>  <measurement name>
pKi

>  <assay value>
5.55

$$$$
